target: Mtb20SOG (Mycobacterium tuberculosis, UniProt P9WHT9); assay: biochemical
Sequence (P9WHT9 58-291): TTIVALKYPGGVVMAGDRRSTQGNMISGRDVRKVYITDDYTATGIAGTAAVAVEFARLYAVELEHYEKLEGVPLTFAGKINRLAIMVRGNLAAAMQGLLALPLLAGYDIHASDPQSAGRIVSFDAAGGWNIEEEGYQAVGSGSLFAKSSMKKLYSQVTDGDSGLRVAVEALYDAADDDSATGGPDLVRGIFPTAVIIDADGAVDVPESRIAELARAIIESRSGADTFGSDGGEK
Sequence (P9WHU1 9-248 partner): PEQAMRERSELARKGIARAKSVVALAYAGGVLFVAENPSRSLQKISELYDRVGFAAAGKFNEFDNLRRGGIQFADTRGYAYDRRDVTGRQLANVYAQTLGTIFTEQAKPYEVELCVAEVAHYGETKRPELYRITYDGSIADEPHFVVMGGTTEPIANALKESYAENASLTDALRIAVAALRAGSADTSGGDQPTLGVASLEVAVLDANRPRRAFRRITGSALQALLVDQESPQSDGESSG
Peptide text beside a SMILES is read from it. * marks the point of attachment. Cbz = O=C(OCc1ccccc1)*
quantityName: pIC50
Quick note: pIC50 means taking -log10 of the concentration in moles per liter.

Enter reported pIC50 observed with Mtb20SOG (Mycobacterium tuberculosis, UniProt P9WHT9) for CC(C)C[C@@H](C=O)NC(=O)[C@H](CC(C)C)NC(=O)[C@H](CC(C)C)NC(=O)OCc1ccccc1 [MG-132] (Cbz-Leu-Leu-Leu-aldehyde)
5.77
